tested on: Human immunodeficiency virus 1; assay: Antiviral activity against HIV1 in human MT4 cells in presence of 50% normal human serum; format: functional; settings: Human immunodeficiency virus 1, MT4; read-out: CIC95
What IC95 was measured for each of the following?
Numbers only, in µM.

Use the examples below as a reference point.
smiles representation	experimental system	observed
N#Cc1cc(Cl)cc(Oc2cc(OCc3nc4cccc(Cl)c4s3)ccc2Cl)c1	Human immunodeficiency virus 1	1.25
N#Cc1cc(Cl)cc(Oc2cc(OCC(=O)Nc3ccc(S(N)(=O)=O)cc3Cl)ccc2Cl)c1	Human immunodeficiency virus 1	0.0239
CS(=O)(=O)c1ccc2c(c1)CCN2C(=O)COc1ccc(Cl)c(Oc2cc(Cl)cc(C#N)c2)c1	Human immunodeficiency virus 1	0.0297
N#Cc1cc(Cl)cc(Oc2cc(Cl)cc(OCC(=O)Nc3ccc(S(N)(=O)=O)cc3Cl)c2)c1	Human immunodeficiency virus 1	0.125

Give me IC95 for each of these compounds, listed below.
1. Cc1cc(S(N)(=O)=O)ccc1NC(=O)COc1ccc(Cl)cc1C(=O)c1cc(Cl)cc(C#N)c1
2. N#Cc1cc(Cl)cc(Oc2cc(OCc3nc4cccc(Cl)c4o3)ccc2Cl)c1
3. N#Cc1cc(Cl)cc(Oc2cc(OCc3nc4ccccc4s3)ccc2Cl)c1

// result
1: 0.0305; 2: 0.312; 3: 1.25

Give me IC95 for each of these compounds, listed below.
1. N#Cc1cc(Cl)cc(Oc2cc(OCc3n[nH]c4ccccc34)ccc2Cl)c1
2. N#Cc1cc(Cl)cc(Oc2cc(OCc3nc4cccc(Cl)c4[nH]3)ccc2Cl)c1
3. CS(=O)(=O)c1ccc(NC(=O)COc2ccc(Cl)c(Oc3cc(Cl)cc(C#N)c3)c2)c(Cl)c1
4. Cc1cc(C)c(-n2nnnc2SCC(=O)Nc2ccc(S(N)(=O)=O)cc2Cl)c(C)c1
5. N#Cc1cccc(Oc2cc(Cl)cc(OCC(=O)Nc3ccc(S(N)(=O)=O)cc3Cl)c2)c1

// result
1: 0.114; 2: 2.78; 3: 0.078; 4: 0.062; 5: 0.16

###

target: Human immunodeficiency virus type 1 reverse transcriptase (Human immunodeficiency virus 1, UniProt Q72547)
pIC50: −log10 of the molar value.
Answer not satisfied if pIC50 is under 8, and satisfied if it is 8 or more.

The following compounds have reported results that may help.
smiles representation	group label
CS(=O)(=O)c1ccc2c(c1)CCN2C(=O)COc1ccc(Cl)c(Oc2cc(Cl)cc(C#N)c2)c1	satisfied
N#Cc1cc(Cl)cc(Oc2cc(OCc3nc4cccc(Cl)c4o3)ccc2Cl)c1	satisfied
N#Cc1cc(Cl)cc(Oc2cc(OCc3nc4cccc(Cl)c4s3)ccc2Cl)c1	satisfied
N#Cc1cccc(Oc2cc(Cl)cc(OCC(=O)Nc3ccc(S(N)(=O)=O)cc3Cl)c2)c1	satisfied
Cc1cc(C)c(-n2nnnc2SCC(=O)Nc2ccc(S(N)(=O)=O)cc2Cl)c(C)c1	satisfied
N#Cc1cc(Cl)cc(Oc2cc(OCc3nc4ccccc4s3)ccc2Cl)c1	not satisfied
Cc1cc(S(N)(=O)=O)ccc1NC(=O)COc1ccc(Cl)cc1C(=O)c1cc(Cl)cc(C#N)c1	satisfied

Consider now this further compound.
// query Identify whether the reported pIC50 of the following compound is 8 or greater: NS(=O)(=O)c1ccc(NC(=O)COc2cccc(Oc3ccccc3)c2)c(Cl)c1
// result not satisfied

###

assay: Half life in Beagle dog at 0.25 mg/kg, iv; assay type: ADME, organism-based, Canis lupus familiaris; design: dose 0.25 mg/kg, route intravenous; details: in vivo
property name: half-life

For this compound ( N#Cc1cc(Cl)cc(Oc2cc(OCc3n[nH]c4ccccc34)ccc2Cl)c1 ), measured half-life is 1.5 h

###

test: Volume of distribution in Beagle dog at 0.25 mg/kg, iv; type: ADME, organism-based, Canis lupus familiaris; set-up: dose 0.25 mg/kg, route intravenous; conditions: in vivo
property name: Vd
The reply should read as a number followed by its unit.

For this compound ( N#Cc1cc(Cl)cc(Oc2cc(OCc3n[nH]c4ccccc34)ccc2Cl)c1 ), measured Vd is 1.2 L/kg

###

target: Human immunodeficiency virus type 1 reverse transcriptase (Human immunodeficiency virus 1, UniProt Q72547, K103N); experiment: Inhibition of HIV1 reverse transcriptase K103N mutant by SPA assay
pIC50: −log10 of the molar value.
Answer Not fulfilled if pIC50 is under 8, and Fulfilled if it is 8 or more.

The following molecules have reported results that may help.
smiles representation	group label
NS(=O)(=O)c1ccc(NC(=O)COc2cccc(Oc3ccccc3)c2)c(Cl)c1	Not fulfilled
Cc1cc(S(N)(=O)=O)ccc1NC(=O)COc1ccc(Cl)cc1C(=O)c1cc(Cl)cc(C#N)c1	Fulfilled
CS(=O)(=O)c1ccc(NC(=O)COc2ccc(Cl)c(Oc3cc(Cl)cc(C#N)c3)c2)c(Cl)c1	Fulfilled
N#Cc1cc(Cl)cc(Oc2cc(OCc3n[nH]c4ccccc34)ccc2Cl)c1	Fulfilled
NS(=O)(=O)c1ccc(NC(=O)COc2cc(Cl)cc(Oc3ccccc3)c2)c(Cl)c1	Not fulfilled

Consider now this further molecule.
// query Identify whether the reported pIC50 of the following molecule is 8 or greater: N#Cc1cc(Cl)cc(Oc2cc(OCC(=O)Nc3ccc(S(N)(=O)=O)cc3Cl)ccc2Cl)c1
// result Fulfilled

###

system: Human immunodeficiency virus 1; experiment: Antiviral activity against HIV1 with RT K101E/G190A mutation in human MT4 cells in presence of 40% normal human serum; format: functional, organism-based; details: Human immunodeficiency virus 1, MT4
property name: IC50 (nM)
Numbers only, in nM.

Kindly note: Human immunodeficiency virus 1, N#Cc1cc(Cl)cc(Oc2cc(OCc3n[nH]c4ccccc34)ccc2Cl)c1 , IC50 value reported: 21

###

What IC50 was measured for each of the following?
molecular target: Human immunodeficiency virus type 1 reverse transcriptase (Human immunodeficiency virus 1, UniProt Q72547, K103N); assay: Inhibition of HIV1 reverse transcriptase K103N mutant by SPA assay
Numbers only, in nM.

Use the examples below as a reference point.
smiles representation	endpoint unit	IC50
N#Cc1cc(Cl)cc(Oc2cc(OCc3nc4cccc(Cl)c4o3)ccc2Cl)c1	nM	1.41
N#Cc1cc(Cl)cc(Oc2cc(Cl)cc(OCC(=O)Nc3ccc(S(N)(=O)=O)cc3Cl)c2)c1	nM	3.48
N#Cc1cc(Cl)cc(Oc2cc(OCc3nc4cccc(Cl)c4s3)ccc2Cl)c1	nM	5.98

Give me IC50 for each of these molecules, listed below.
1. CS(=O)(=O)c1ccc2c(c1)CCN2C(=O)COc1ccc(Cl)c(Oc2cc(Cl)cc(C#N)c2)c1
2. N#Cc1cc(Cl)cc(Oc2cc(OCc3nc4ccccc4s3)ccc2Cl)c1

// result
[0.33, 79.2]

###

target: Human immunodeficiency virus type 1 reverse transcriptase (Human immunodeficiency virus 1, UniProt Q72547, Y181C); assay: Inhibition of HIV1 reverse transcriptase Y181C mutant by SPA assay
property name: pIC50
One number for each entry, as −log10 of the molar value.

smiles representation	pIC50
NS(=O)(=O)c1ccc(NC(=O)COc2cccc(Oc3ccccc3)c2)c(Cl)c1	6.14

Give me pIC50 for each of these compounds, listed below.
1. Cc1cc(C)c(-n2nnnc2SCC(=O)Nc2ccc(S(N)(=O)=O)cc2Cl)c(C)c1
2. CS(=O)(=O)c1ccc2c(c1)CCN2C(=O)COc1ccc(Cl)c(Oc2cc(Cl)cc(C#N)c2)c1
3. N#Cc1cc(Cl)cc(Oc2cc(OCc3n[nH]c4ccccc34)ccc2Cl)c1
4. N#Cc1cc(Cl)cc(Oc2cc(OCc3nc4ccccc4s3)ccc2Cl)c1
5. N#Cc1cc(Cl)cc(Oc2cc(OCc3nc4cccc(Cl)c4o3)ccc2Cl)c1

// result
[7.46, 8.77, 8.58, 7.26, 8.20]

###

target: Human immunodeficiency virus type 1 reverse transcriptase (Human immunodeficiency virus 1, UniProt Q72547, K103N); assay: Inhibition of HIV1 reverse transcriptase K103N mutant by SPA assay
What IC50 was measured for each of the following?
One number for each entry, in nM.

Use the examples below as a reference point.
smiles representation	IC50 / nM
N#Cc1cc(Cl)cc(Oc2cc(OCc3nc4cccc(Cl)c4[nH]3)ccc2Cl)c1	7.3
N#Cc1cccc(Oc2cc(Cl)cc(OCC(=O)Nc3ccc(S(N)(=O)=O)cc3Cl)c2)c1	14.4

Continue with the next molecule.
For this molecule ( Cc1cc(C)c(-n2nnnc2SCC(=O)Nc2ccc(S(N)(=O)=O)cc2Cl)c(C)c1 ), measured IC50 is 10.4
